Test system: SNB-19 CNS
Assay: NCI-60 one-dose screen, 48 h
Conditions: 10 µM unless noted
This is part of a sample that, as a whole, favours compounds with a hit. Of some 83,000 tested, about 20% had one in any assay. Calls of active or inactive are those of the source. Rule for the calls: active = growth percent below 10; inactive = the rest.
I would appreciate it if you answered using one of these outcomes: y (active), n (inactive)

Identify the outcome logged in this assay for the compound shown: C=C1C(=O)O[C@H]2[C@H]1CC/C(Cn1cc(Cn3ccc4cc(Cl)ccc43)nn1)=C\CC[C@@]1(C)O[C@@H]21 n

Which result was noted for this compound in the test: COc1ccc(CN(c2ccc(C)cc2)C2OC(=O)c3ccccc32)cc1OC (centres undefined) n

# outcome recorded in this test, key = COc1ccc(CNc2nccnn2)cc1 n
